Each entry below carries its measured pIC50, system: SFRP-1 (Homo sapiens, UniProt Q8N474).
pIC50: −log10 of the molar value.
recorded_metric: pIC50

Sample records with pIC50:
CC(C)c1ccc(S(=O)(=O)c2ccc(F)cc2)cc1S(=O)(=O)NC1CCN(C(=O)OC(C)(C)C)CC1 = 5.80
CC(C)c1ccc(S(=O)(=O)c2ccc(F)cc2)cc1S(=O)(=O)NCCc1ccccn1 = 6.05
COc1ccc(CCNS(=O)(=O)c2cc(S(=O)(=O)c3ccccc3)ccc2C(F)(F)F)cc1 = 6.15
Cc1ccccc1NC(=S)N1CCC(NS(=O)(=O)c2cc(S(=O)(=O)c3ccc(F)cc3)ccc2C(C)C)CC1 = 5.77
COC(=O)N1CCC(NS(=O)(=O)c2cc(S(=O)(=O)c3ccccc3)ccc2C)CC1 = 5.68
CCc1ccc(S(=O)(=O)c2ccccc2)cc1S(=O)(=O)NCCCOC = 5.40

1 = Cc1c(C#N)cccc1S(=O)(=O)c1ccc(C(C)C)c(S(=O)(=O)NCCc2ccccn2)c1
2 = Cc1ccc(S(=O)(=O)c2ccccc2)cc1S(=O)(=O)NC1CCN(C(=O)OCC(C)C)CC1
Lookup: Hi, I'm comparing 1 with 2 and wondering which one has the bigger number for pIC50. Any idea? Response format: the label of the selected entry.
Found: 1

----------
experimental_target: UniProtKB Q8N474
Sequence (Q8N474 32-314): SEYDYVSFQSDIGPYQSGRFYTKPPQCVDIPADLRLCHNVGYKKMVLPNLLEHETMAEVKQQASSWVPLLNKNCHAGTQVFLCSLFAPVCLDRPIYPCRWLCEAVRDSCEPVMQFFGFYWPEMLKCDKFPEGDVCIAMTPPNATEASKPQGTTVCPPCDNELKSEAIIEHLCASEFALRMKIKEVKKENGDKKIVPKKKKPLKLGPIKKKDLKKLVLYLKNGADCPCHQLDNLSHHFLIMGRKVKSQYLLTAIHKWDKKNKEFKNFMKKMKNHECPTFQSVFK
procedure_details: Cell-based assay for in vitro measurement of SFRP-1/SARP2 antagonist activity (U2OS cells co-transfected with 16x TCF-tk-Luciferase reporter, Wnt and hSFRP-1)
experimental_context: U2OS, read-out: Fold Induction without SFRP-1, Conc 15 μM; without SFRP-1, single dose
recorded_metric: fold induction at 15 µM

The following compounds have reported results that may help.
CC(C)c1ccc(S(=O)(=O)c2ccc(F)cc2)cc1S(=O)(=O)NCCCn1ccnc1 = 1.1
Cc1ccc(S(=O)(=O)c2ccccc2)cc1S(=O)(=O)NC1CCNCC1 = 1.1
C=CCN(CCc1ccc(OC)c(OC)c1)S(=O)(=O)c1cc(S(=O)(=O)c2ccccc2)ccc1C = 1

a = Cc1ccc(S(=O)(=O)c2ccccc2)cc1S(=O)(=O)NC1CCN(Cc2ccccc2)CC1
b = Cc1cc(C)c(S(=O)(=O)c2ccccc2)cc1S(=O)(=O)NCCn1ccnc1
Lookup: Given a and b , report the one with the higher recorded fold induction at 15 µM. Use the label to indicate which entry you chose.
Found: a

I = Cc1cc(C)c(S(=O)(=O)c2ccc(F)cc2)cc1S(=O)(=O)NCCC1CCOCC1
II = COc1ccc(S(=O)(=O)c2ccccc2)cc1S(=O)(=O)NCCCN1CCCC1
III = CCc1ccc(S(=O)(=O)c2ccccc2)cc1S(=O)(=O)NCCN1CCOCC1
Lookup: Ranking field: fold induction at 15 µM; order: falling. Write the labels, ordered according to the request.
Found: II, I, III
(II: 1.9, I: 1, III: 0.7)

----------
experimental_target: SFRP-1 (Homo sapiens, UniProt Q8N474)
procedure_details: Cell-based assay for in vitro measurement of SFRP-1/SARP2 antagonist activity (U2OS cells co-transfected with 16x TCF-tk-Luciferase reporter, Wnt and hSFRP-1)
recorded_metric: EC50 (nM)

Here is how some compounds turned out for EC50.
CC(C(N)=O)N1CCC(NS(=O)(=O)c2cc(S(=O)(=O)c3ccccc3)ccc2C(F)(F)F)CC1 (centres unmarked) [Example 1003] = 399
Cc1cc(C)c(S(=O)(=O)c2ccccc2)cc1S(=O)(=O)NC1CCN(C(=O)OC(C)(C)C)CC1 [Example 911] = 2420
COc1ccc2c(c1)C(O)C(NS(=O)(=O)c1cc(S(=O)(=O)c3ccccc3)ccc1C(F)(F)F)C2 (centres unmarked) [Example 1044] = 1340
O=S(=O)(NC1CCNCC1)c1cc(S(=O)(=O)c2ccccc2NCCO)ccc1C(F)(F)F [Example 869] = 1760
CC(C)(C)OC(=O)N1CSC[C@H]1C(=O)N1CCC(NS(=O)(=O)c2cc(S(=O)(=O)c3ccccc3)ccc2C(F)(F)F)CC1 [Example 1055] = 96
CN(CCCNS(=O)(=O)c1cc(S(=O)(=O)c2ccccc2)ccc1C(F)(F)F)C(=O)NC1CCNCC1 [Example 971] = 774
O=C(O)CCC(=O)N1CCC(NS(=O)(=O)c2cc(S(=O)(=O)c3ccccc3)ccc2C(F)(F)F)C1 (centres unmarked) [Example 886] = 1330
COC(=O)c1cccc(S(=O)(=O)N2CCC(NS(=O)(=O)c3cc(S(=O)(=O)c4ccccc4)ccc3C(F)(F)F)CC2)c1 [Example 938] = 850
C[C@@H](NS(=O)(=O)c1cc(S(=O)(=O)c2ccccc2)ccc1C(F)(F)F)[C@@H](O)c1ccccc1 [Example 686] = 1750

I = O=C(O)c1cccc(NC(=S)N2CCC(NS(=O)(=O)c3cc(S(=O)(=O)c4ccccc4)ccc3C(F)(F)F)CC2)c1 [Example 855]
II = O=C(CN1CCC(NS(=O)(=O)c2cc(S(=O)(=O)c3ccccc3)ccc2C(F)(F)F)CC1)c1ccccc1 [Example 751]
III = COC(=O)c1ccc(C(=O)N(C)CCNS(=O)(=O)c2cc(S(=O)(=O)c3ccccc3)ccc2C(F)(F)F)cc1 [Example 848]
IV = CN(CCNS(=O)(=O)c1cc(S(=O)(=O)c2ccccc2)ccc1C(F)(F)F)C(=O)c1ccco1 [Example 837]
Lookup: Descending sort on EC50 required. In plain terms: list the labels in the order you were asked to.
Found: II, III, IV, I

----------
experimental_target: SFRP-1 (Homo sapiens)
procedure_details: Cell-based assay for in vitro measurement of SFRP-1/SARP2 antagonist activity (U2OS cells co-transfected with 16x TCF-tk-Luciferase reporter, Wnt and hSFRP-1)
experimental_context: U2OS, read-out: Fold Induction with SFRP-1, U2OS cells, single dose 10 μM, luciferase reporter, fold induction over SFRP-1 control
recorded_metric: fold induction at 10 µM

These recorded examples may help you get a feel for the data.
Cc1ccc(S(=O)(=O)c2ccccc2)cc1S(=O)(=O)NCCC(=O)N(C)c1ccccc1 [Example 668] = 1.4
O=C(NCCNS(=O)(=O)c1cc(S(=O)(=O)c2ccccc2)ccc1C(F)(F)F)c1ccc(OC(F)(F)F)cc1 [Example 782] = 1.2
CC(C)c1ccc(S(=O)(=O)c2ccccc2)cc1S(=O)(=O)NCCc1ccccn1 [Example 671] = 3.6
CN(CCNS(=O)(=O)c1cc(S(=O)(=O)c2ccccc2)ccc1C(F)(F)F)C(=O)Nc1cccnc1 [Example 827] = 3.5

A = O=S(=O)(NC1CCOCC1)c1cc(S(=O)(=O)c2ccc(F)cc2)ccc1C(F)(F)F [Example 817]
B = CC(C)c1ccc(S(=O)(=O)c2ccccc2)cc1S(=O)(=O)NC1CCC(C(=O)O)CC1 (stereo not shown) [Example 953]
C = CC(C)(C)c1ccc(C(=O)NCCNS(=O)(=O)c2cc(S(=O)(=O)c3ccccc3)ccc2C(F)(F)F)cc1 [Example 776]
Lookup: hey, can you rank those molecules up there by fold induction at 10 µM? biggest number first please Write out the labels following the order that was asked for.
Found: A, B, C

----------
experimental_target: SFRP-1 (Homo sapiens)
procedure_details: Cell-based assay for in vitro measurement of SFRP-1/SARP2 antagonist activity (U2OS cells co-transfected with 16x TCF-tk-Luciferase reporter, Wnt and hSFRP-1);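 further: U2OS cells co-transfected with a TCF-tk luciferase reporter, a Wnt vector, hSFRP-1 or empty vector and CMV-βgal, luciferase luminescence read in cell lysates alongside βgal activity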
experimental_context: U2OS, read-out: Fold Induction without SFRP-1, Conc 15 μM; single dose; luciferase reporter; cells without SFRP-1 (specificity control)
recorded_metric: fold induction at 15 µM

The examples below pair each entry with its known result.
CC(C)c1cc(C(C)C)c(S(=O)(=O)c2ccc(F)cc2)cc1S(=O)(=O)NC1CCOCC1 = 1
CC(C)c1cc(C(C)C)c(S(=O)(=O)c2ccc(F)cc2)cc1S(=O)(=O)NCCc1ccccn1 = 1
CNc1ccc(S(=O)(=O)c2ccc(C(C)C)c(S(=O)(=O)NC3CCN(C(=O)OC(C)(C)C)CC3)c2)cc1 = 1.1
Cc1ccc(S(=O)(=O)c2ccccc2)cc1S(=O)(=O)NC1CCN(C(=O)c2cccs2)CC1 = 1
O=C(N1CCC(NS(=O)(=O)c2cc(S(=O)(=O)c3ccccc3)ccc2Cl)CC1)C(F)(F)F = 1.1

1 = CC(C)c1ccc(S(=O)(=O)c2cc(Cl)sc2Cl)cc1S(=O)(=O)NCCc1ccccn1
2 = CC(C)c1ccc(S(=O)(=O)c2ccc3c(ccn3C)c2)cc1S(=O)(=O)NCCc1ccccn1
Lookup: Determine, for 1 and 2 , which has the greater value of fold induction at 15 µM. Pick one and reply with its label.
Found: 2

Source: patent US20060276464A1
